The measured values listed here are drawn from patent US20090004497A1.

Test system: decay organisms
Experiment: soil contact veneer exposure test (Scots pine sapwood veneers part buried in damp compost, pulled by hand until failure)
Conditions: Example 1; expected additive value for 1.00% fungicide plus 1.00% RH-287, midway between the two 2.00% values
reported-property: Half lives, With RH-287 added, expected value in parentheses

compound	experimental-result
CCCC1COC(Cn2cncn2)(c2ccc(Cl)cc2Cl)O1 (racemic) [Propiconazole]	(14.84 weeks)
CC(Cc1ccc(C(C)(C)C)cc1)CN1C[C@@H](C)O[C@@H](C)C1 (mixture of isomers) [Fenpropimorph]	(14.84 weeks)
